Origin of the recorded values: patent US9067943B2

Target: human CB2 receptors (Homo sapiens, UniProt P34972)
Construct: expressed in transfected cells; host or cells: CHO cells
Sequence (P34972 whole entry): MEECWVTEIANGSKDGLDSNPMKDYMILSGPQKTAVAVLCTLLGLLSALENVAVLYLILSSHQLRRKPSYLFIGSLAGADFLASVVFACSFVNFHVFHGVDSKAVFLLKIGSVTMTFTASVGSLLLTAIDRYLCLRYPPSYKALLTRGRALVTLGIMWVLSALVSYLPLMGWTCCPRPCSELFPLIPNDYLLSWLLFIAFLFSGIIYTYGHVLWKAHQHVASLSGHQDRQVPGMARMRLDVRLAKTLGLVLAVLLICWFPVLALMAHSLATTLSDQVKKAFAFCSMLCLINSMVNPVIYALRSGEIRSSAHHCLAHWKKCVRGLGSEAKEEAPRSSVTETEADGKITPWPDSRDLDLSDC
Assay: cAMP assay
Format: cell-based
Measured log10(EC50), listed per entry.
recorded_metric: log10(EC50) (log10 of the value in nM)

structure_as_smiles=Cn1nnnc1Cn1nc2nc(C(C)(C)C)nc(N3CC(F)(F)C(F)(F)C3)c2n1 meas_value=0.80
structure_as_smiles=CC(C)(C)c1nc(N2CCC(F)(F)C2)c2nn(CCc3ccccc3)nc2n1 meas_value=0.11
structure_as_smiles=Cc1nc(Cn2nc3nc(C(C)(C)C)nc(N4CCC(F)(F)C4)c3n2)n(C)n1 meas_value=1.35
structure_as_smiles=Cc1nnc(Cn2nc3nc(C(C)(C)C)nc(N4CCC(F)(F)C4)c3n2)o1 meas_value=1.27
structure_as_smiles=C[C@H](Oc1nc(N2CCC(F)(F)C2)c2nn(Cc3nnnn3C)nc2n1)C(F)(F)F meas_value=1.84
structure_as_smiles=CC(C)(C)c1nc(N2CCC(F)(F)C2)c2nn(CC(=O)c3ccccn3)nc2n1 meas_value=0.38
structure_as_smiles=Cn1ncnc1Cn1nc2nc(C(C)(C)C)nc(N3CCC(F)(F)C3)c2n1 meas_value=0.04
structure_as_smiles=CC(C)(C)c1nc(N2CCC(F)(F)C2)c2nn(CC(=O)c3ccccc3)nc2n1 meas_value=-0.05
